Reference source: ChEMBL document CHEMBL1153095

# Test system: Nucleic Acid
# experimentalDetails: Stabilization of 5'-d[(G3T2A)3G3]-3' quadruplex DNA assessed as change in melting temperature at 20 uM by CD-spectrophotometry
# Type: nucleic-acid assay
assayEndpoint: ΔTm (°C)

N=C(N)NCCCNc1ccnc2c1ccc1c(NCCCNC(=N)N)ccnc12 :: 16.6
CN(C)CCCCNc1ccnc2c1ccc1c(NCCCCN(C)C)ccnc12 :: 14.4
NCCCNc1ccnc2c1ccc1c(NCCCN)ccnc12 :: 13.1

1. NCCNc1ccnc2c1ccc1c(NCCN)ccnc12
2. N=C(N)NCCCCNc1ccnc2c1ccc1c(NCCCCNC(=N)N)ccnc12
Lab note: record which item had the higher ΔTm, 1 or 2 . Answer by stating the label of the chosen item. 2
(2: 17.3 °C, 1: 9.9 °C)

* * *

# Test system: Nucleic Acid
# experimentalDetails: Stabilization of 5'-d[(G3T2A)3G3]-3' quadruplex DNA assessed as change in melting temperature at 5 uM by CD-spectrophotometry
# Type: nucleic-acid assay
assayEndpoint: ΔTm (°C)

Worked examples follow.
NCCCNc1ccnc2c1ccc1c(NCCCN)ccnc12 :: 2.4
NCCCCNc1ccnc2c1ccc1c(NCCCCN)ccnc12 :: 2.5
CN(C)CCCCNc1ccnc2c1ccc1c(NCCCCN(C)C)ccnc12 :: 2.3

1. N=C(N)NCCNc1ccnc2c1ccc1c(NCCNC(=N)N)ccnc12
2. NCCNc1ccnc2c1ccc1c(NCCN)ccnc12
3. N=C(N)NCCCCNc1ccnc2c1ccc1c(NCCCCNC(=N)N)ccnc12
Rank order required: ΔTm, descending. Order the labels as requested and list them. 3, 1, 2

* * *

# measuredTarget: Nucleic Acid
# experimentalDetails: Binding affinity to 5'-d[(G3T2A)3G3]-3' quadruplex DNA by surface plasmon resonance
assayEndpoint: Kd (nM)

N=C(N)NCCNc1ccnc2c1ccc1c(NCCNC(=N)N)ccnc12 :: 400

P. CN(C)CCNc1ccnc2c1ccc1c(NCCN(C)C)ccnc12
Q. N=C(N)NCCCNc1ccnc2c1ccc1c(NCCCNC(=N)N)ccnc12
Just tell me: smaller Kd value, P or Q ? Answer by stating the label of the chosen item. Q
(Q: 410 nM, P: 820 nM)

* * *

# Test system: Nucleic Acid
# experimentalDetails: Stabilization of 5'-d[(G3T2A)3G3]-3' quadruplex DNA assessed as change in melting temperature at 20 uM by CD-spectrophotometry
# Format: nucleic-acid assay
assayEndpoint: ΔTm (°C)

Worked examples follow.
CN(C)CCCNc1ccnc2c1ccc1c(NCCCN(C)C)ccnc12 :: 13.3
N=C(N)NCCNc1ccnc2c1ccc1c(NCCNC(=N)N)ccnc12 :: 13.7

A. CN(C)CCNc1ccnc2c1ccc1c(NCCN(C)C)ccnc12
B. Cc1ccnc2c1ccc1c(C)ccnc12
C. c1cnc2c(c1)ccc1cccnc12
D. Nc1ccnc2c1ccc1c(N)ccnc12
E. NCCCCNc1ccnc2c1ccc1c(NCCCCN)ccnc12
Rank order required: ΔTm, descending. Order the labels as requested and list them. E, A, D, B, C

* * *

# System: Nucleic Acid
# experimentalDetails: Stabilization of 5'-d[(G3T2A)3G3]-3' quadruplex DNA assessed as change in melting temperature at 5 uM by CD-spectrophotometry
# Assay type: nucleic-acid assay
assayEndpoint: ΔTm (°C)

CN(C)CCNc1ccnc2c1ccc1c(NCCN(C)C)ccnc12 :: 1.8

I. CN(C)CCCNc1ccnc2c1ccc1c(NCCCN(C)C)ccnc12
II. N=C(N)NCCCNc1ccnc2c1ccc1c(NCCCNC(=N)N)ccnc12
Lab note: record which item had the higher ΔTm, I or II . Answer by stating the label of the chosen item. II
